// data source = patent US4401604A

System: Cocklebur
Experiment: Post-emergence herbicidal activity, greenhouse
Format: in vivo
Conditions: Table II; 1.12 kg/h; 4 WAT
Text: A good grade of top soil is placed in aluminum pans having holes in the bottom and compacted to a depth of 0.95 to 1.27 cm. from the top of the pan. […] The pans are returned to the greenhouse and watered as before and the injury to the plants as compared to the control is observed at approximately two and four weeks as indicated in the tables under WAT and the results recorded. […]
PARAMETER: post-emergence herbicidal activity index

CCCCCCCCSSN(CC(=O)OC)CP(=O)(Oc1ccccc1)Oc1ccccc1
1 (25-49% control)
O=C(CN(CP(=O)(Oc1ccccc1)Oc1ccccc1)SSCCc1ccccc1)OCc1ccccc1
1 (25-49% control)
COC(=O)CN(CP(=O)(Oc1ccccc1OC)Oc1ccccc1OC)SSc1cccc(C(F)(F)F)c1
1 (25-49% control)
COC(=O)CN(CP(=O)(Oc1ccccc1)Oc1ccccc1)SSC(C)C
2 (50-74% control)
CCOC(=O)CN(CP(=O)(Oc1ccc(OC)cc1)Oc1ccc(OC)cc1)SSC
3 (75-99% control)
